target: SpSla1-D3; assay: SPOT peptide array binding signal intensity (averaged, normalized) (arbitrary units (background-subtracted, floor 0; scale differs between SH3 domains)); higher = stronger binding of the SH3 domain to the peptide
Please go through the items and note down their SPOT peptide array binding signal intensity.
Numbers only.

In [3]: df
Out[3]:
            binder  reported_value
0  PSTMDFPKLPSFQNS             133
1  HPRFVSPRIPSRIVK              11
2  SHRLWLYAAPKRPKT              15
3  RRRDFGAPANKRPRR               8
4  MKRSRPSRSIPYTTP               7
5  RTIRKLPLMSLSEYF              19
6  IHTRRPSSTSQYLIR               6
7  VNIPSPSSSPPPIPK               2

Give me SPOT peptide array binding signal intensity for each of these binders, listed below.
1. KRNRLKILLPFLEQS
2. SKAKRPKFLLDLQIK
3. IPSRPAPKPPSSASA

Ans.
11
3
3
